- test method notes: In vitro enzyme assay to detect hydrolysis of chlorophenol red-beta-D-[…] directly proportional to the number of Toxoplasma stably expressing beta-galactosidase
- Format: functional, organism-based, Toxoplasma gondii
- Parameters: scale not given: in the data most compounds retested in dose-response had high values
- applied conditions: 10 µM
In all, about 85,000 compounds went through this assay and about 440 (0.52%) showed an effect of 50% or more. The full list was thinned out, with strong results kept by preference.
quantity measured: Percent Effect (%)

CS(=O)(=O)Nc1nn(Cc2ccc(F)cc2)cc1Br ... 62.42
Cc1cc(NC(=O)NCc2cccnc2OC2CCCC2)n(C)n1 ... -3.087
Oc1cc(C2CCCCN2Cc2cccs2)nc(-c2ccncc2)n1 (configuration not stated) ... -14.06
Cc1cccc(Cn2cc(Br)c(NS(C)(=O)=O)n2)c1 ... 46.94
O=C(NCCC1=CCCCC1)c1cc(-c2ccc(O)cc2)n[nH]1 ... 74.79
CSCC(CCO)NC(=O)c1cccc(Cl)c1F (configuration not stated) ... -4.915
Cc1ccc(-c2cc(C(=O)NCCC3=CCCCC3)[nH]n2)o1 ... 28.69
CN(C)c1cc(C2CCCN(C(=O)Cn3cc(Cl)cn3)C2)ccn1 (configuration not stated) ... 0.9748
Cc1ccc(-n2ncc3c2CCCC3N)cc1C (configuration not stated) ... 16.25
O=C(Cn1cc(Cl)cn1)N1CCCC(c2ccn[nH]2)C1 (configuration not stated) ... -16.77
N#Cc1c(Cl)nsc1NCc1cccnc1OC1CCCC1 ... 78.06
Fc1ccc(CN2CCCC2Cn2cncn2)c2ncccc12 (configuration not stated) ... -4.806
